- SYSTEM_UNDER_TEST: recombinant human PKA (Homo sapiens)
- Construct: Active recombinant human PKA (residues 1-351, N-terminal His-tag); His-tag (N); purchased Invitrogen, Karlsruhe, Germany
- ASSAY_EXPLANATION: Determination of Protein Kinase A inhibition (Caliper peptide phosphorylation assay)
- Assay type: biochemical
- CONDITIONS_USED: recombinant human PKA versus ROCK II
# Lookup of reported Selectivity against PKA keyed by entry

As a guide, the following entries are already answered.
COMPOUND	Selectivity against PKA
NC(c1ccccc1)C1(c2ccccc2)CCC(Oc2cc3cc[nH]c(=O)c3cc2Cl)CC1 (single isomer, unassigned) [Example 41]	>10
CC(C)(N)[C@]1(c2ccc(F)cc2)CC[C@H](Oc2cc3cc[nH]c(=O)c3cc2Cl)CC1 [Example 77]	>1000
CCC(N)[C@]1(c2ccc(F)c(F)c2)CC[C@H](Oc2cc3cc[nH]c(=O)c3cc2Cl)CC1 (stereo partly shown) [Example 59]	>1000
CCC(N)[C@]1(c2cccc(OC)c2)CC[C@@H](Oc2cc3cc[nH]c(=O)c3cc2Cl)CC1 (stereo partly shown) [Example 17]	>300
NC(c1ccccc1)C1(c2ccccc2)CCC(Oc2cc3cc[nH]c(=O)c3cc2Cl)CC1 (single isomer, unassigned) [Example 42]	>300

Recorded Selectivity against PKA (compound CCC(N)[C@@]1(c2ccccc2)C[C@@H]2C[C@H]1CC2Oc1cc2cc[nH]c(=O)c2cc1Cl (stereo partly shown) [Example 100] ): >1000

Recorded Selectivity against PKA (compound NC1([C@]2(c3ccccc3)CC[C@H](Oc3cc4cc[nH]c(=O)c4cc3Cl)CC2)CC1 [Example 2] ): >1000

----------
- SYSTEM_UNDER_TEST: human recombinant ROCK II (Homo sapiens)
- Construct: N-terminal His6-tagged recombinant human ROCK-II residues 11-552; His6 (N); purchased Millipore GmbH, Schwalbach, Germany
- Sequence (O75116 11-552): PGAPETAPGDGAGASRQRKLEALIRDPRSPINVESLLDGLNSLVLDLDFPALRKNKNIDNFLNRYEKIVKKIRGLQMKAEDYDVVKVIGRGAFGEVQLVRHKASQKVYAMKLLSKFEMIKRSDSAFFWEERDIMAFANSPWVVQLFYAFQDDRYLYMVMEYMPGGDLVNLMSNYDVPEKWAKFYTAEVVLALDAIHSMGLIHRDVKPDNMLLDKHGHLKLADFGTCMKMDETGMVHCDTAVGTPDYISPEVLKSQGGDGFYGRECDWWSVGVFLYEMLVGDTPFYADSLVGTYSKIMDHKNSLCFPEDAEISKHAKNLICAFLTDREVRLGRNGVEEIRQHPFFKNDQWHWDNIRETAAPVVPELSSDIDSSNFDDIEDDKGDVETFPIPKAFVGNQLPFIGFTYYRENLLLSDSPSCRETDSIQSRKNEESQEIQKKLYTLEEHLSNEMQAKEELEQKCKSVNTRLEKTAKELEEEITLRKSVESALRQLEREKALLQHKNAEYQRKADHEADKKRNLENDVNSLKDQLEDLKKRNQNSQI
- ASSAY_EXPLANATION: Determination of Rho kinase inhibition (Caliper peptide phosphorylation assay)
- Assay type: biochemical
- CONDITIONS_USED: 60 min at 32° C., negative decadal logarithm of the IC50
METRIC_NAME: pIC50

As a guide, the following entries are already answered.
COMPOUND	pIC50
CCC(N)[C@]1(c2ccccc2)CC[C@H](Oc2cc3cc[nH]c(=O)c3cc2Cl)CC1 (stereo partly drawn)	+++++++ (8.0≦pIC50)
CCC(N)[C@]1(c2cccc(OC)c2)CC[C@@H](Oc2cc3cc[nH]c(=O)c3cc2Cl)CC1 (stereo partly drawn)	++++++ (7.0≦pIC50<8.0)
CCC(N)[C@]1(c2cc(F)cc(F)c2)CC[C@H](Oc2cc3cc[nH]c(=O)c3cc2Cl)CC1 (stereo partly drawn)	+++++++ (8.0≦pIC50)
CCC(N)C[C@]1(c2ccc(F)cc2)CC[C@H](Oc2cc3cc[nH]c(=O)c3cc2Cl)CC1 (stereo partly drawn)	++++++ (7.0≦pIC50<8.0)
CCC(N)[C@]1(c2ccc(F)cc2)CC[C@H](Oc2cc3cc[nH]c(=O)c3cc2Cl)CC1 (stereo partly drawn)	+++++++ (8.0≦pIC50)
CCC(N)C1CCC(Oc2cc3cc[nH]c(=O)c3cc2Cl)CC1 (single isomer, unassigned)	++++++ (7.0≦pIC50<8.0)
CCC(N)[C@]1(c2ccc(F)cc2F)CC[C@H](Oc2cc3cc[nH]c(=O)c3cc2Cl)CC1 (stereo partly drawn)	+++++++ (8.0≦pIC50)

Kindly review the next compound as well.
Recorded pIC50 (compound CC(C)CC(N)[C@]1(c2ccccc2)CC[C@@H](Oc2cc3cc[nH]c(=O)c3cc2Cl)CC1 (stereo partly drawn) ): ++++++ (7.0≦pIC50<8.0)

Each recorded value in this set is attributed to patent US8541449B2.
